src = ChEMBL document CHEMBL3885861

Examples of compounds with documented APTT follow.
Species on record: Rattus norvegicus
Assay: Open TG-GATES - Regimen: Daily Repeat
Assay type: toxicity, organism-based, Sprague-Dawley
Parameters: regimen Daily Repeat, gender Male, age 6 weeks
Settings: in vivo, po, 0 mg/kg, […], tissue Blood, route gavage, dose level Control, time 28 day

[
  {
    "COMPOUND": "CCOC(=O)C(C)(C)Oc1ccc(Cl)cc1 [CLOFIBRATE]",
    "APTT, s": 21.1
  },
  {
    "COMPOUND": "C[C@H]1O[C@H](O[C@H]2[C@H](O)[C@@H](O)[C@@H](O[C@H]3[C@H](O)[C@@H](O)C(O)O[C@@H]3CO)O[C@@H]2CO)[C@H](O)[C@@H](O)[C@@H]1N[C@H]1C=C(CO)[C@@H](O)[C@H](O)[C@H]1O (some centres undefined)",
    "APTT, s": 20.5
  },
  {
    "COMPOUND": "Cn1cc[nH]c1=S",
    "APTT, s": 22.6
  },
  {
    "COMPOUND": "O=[N+]([O-])c1ccc(O)c([N+](=O)[O-])c1",
    "APTT, s": 15.9
  }
]

====

Examples of molecules with documented TG follow.
Species: Rattus norvegicus
Assay: Open TG-GATES - Regimen: Daily Repeat
Type: toxicity, organism-based, Sprague-Dawley
Set-up: regimen Daily Repeat, gender Male, age 6 weeks
Conditions: in vivo, po, 0 mg/kg, […], tissue Plasma, route gavage, dose level Control, time 28 day

[
  {
    "MOLECULE": "Cn1cc[nH]c1=S",
    "TG / mg/dL": 168
  },
  {
    "MOLECULE": "O=[N+]([O-])c1ccc(O)c([N+](=O)[O-])c1",
    "TG / mg/dL": 228.8
  },
  {
    "MOLECULE": "CCOC(=O)C(C)(C)Oc1ccc(Cl)cc1 [CLOFIBRATE]",
    "TG / mg/dL": 124.4
  },
  {
    "MOLECULE": "Cc1cccc(C)c1OCC(C)N (centres undefined)",
    "TG / mg/dL": 133.6
  },
  {
    "MOLECULE": "C[C@H]1O[C@H](O[C@H]2[C@H](O)[C@@H](O)[C@@H](O[C@H]3[C@H](O)[C@@H](O)C(O)O[C@@H]3CO)O[C@@H]2CO)[C@H](O)[C@@H](O)[C@@H]1N[C@H]1C=C(CO)[C@@H](O)[C@H](O)[C@H]1O (some centres undefined)",
    "TG / mg/dL": 158.2
  },
  {
    "MOLECULE": "C[C@H]1C(=O)O[C@@H]2CCN3CC=C(COC(=O)[C@](C)(O)[C@]1(C)O)[C@H]23",
    "TG / mg/dL": 160.4
  },
  {
    "MOLECULE": "OCCN1CCN(CCCN2c3ccccc3Sc3ccc(C(F)(F)F)cc32)CC1",
    "TG / mg/dL": 216
  },
  {
    "MOLECULE": "C=C(C)[C@H]1Cc2c(ccc3c2O[C@@H]2COc4cc(OC)c(OC)cc4[C@@H]2C3=O)O1",
    "TG / mg/dL": 182.2
  },
  {
    "MOLECULE": "O=C1CN(/N=C/c2ccc([N+](=O)[O-])o2)C(=O)N1",
    "TG / mg/dL": 139.2
  }
]
